Method notes: inhibitors of E-selectin induction by TNFa, primary screen, imaging, HUVEC, immunofluorescence, MLSMR starter and 10KST1 sets (AID 487);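 also: signal is fraction of cell area covered by stained E-selectin grains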
Run parameters: HUVEC TNFalpha-induced E-selectin immunofluorescence imaging, at 2 µM; hits give high values
Class 1 (yes): inhibition at least -70%. Class 0 (no): inhibition below -70%.

query: Determine whether measured inhibition meets or exceeds -70% for `Cn1c(SCC(=O)N2CCOCC2)nnc1-c1ccc(Cl)cc1Cl`
result: 1 (yes)

query: Determine whether measured inhibition meets or exceeds -70% for COC(=O)C1=C(C)N=C2SC(C)C(=O)N2C1/C=C/c1ccccc1OC (stereo not drawn)
result: 0 (no)

query: Determine whether measured inhibition meets or exceeds -70% for CCN(CC)CCN1C(=O)C(=O)/C(=C(/O)c2ccc(F)cc2)C1c1cccnc1 (stereo not drawn)
result: 1 (yes)

query: Determine whether measured inhibition meets or exceeds -70% for `COC(=O)c1cccc(Nc2cc(C)nc(-c3ccccc3O)n2)c1`
result: 0 (no)

query: Determine whether measured inhibition meets or exceeds -70% for CCOC(=O)C(c1ccccc1)N1CCN(c2ccc(OC)cc2)CC1 (stereo not drawn)
result: 0 (no)

query: Determine whether measured inhibition meets or exceeds -70% for `COc1cc(/C=C/C(=O)CC(=O)/C=C/c2ccc(O)c(OC)c2)ccc1O`
result: 1 (yes)

query: Determine whether measured inhibition meets or exceeds -70% for C=CCNc1nnc(SC2CC(=O)N(c3ccc(OC)cc3)C2=O)s1 (stereo not drawn)
result: 1 (yes)

query: Determine whether measured inhibition meets or exceeds -70% for `CC(C)[N+](C)(CCOC(=O)C1c2ccccc2Oc2ccccc21)C(C)C`
result: 0 (no)

query: Determine whether measured inhibition meets or exceeds -70% for O=C1C2ON(c3ccccc3)C(c3ccncc3)C2C(=O)N1c1ccc(Br)cc1 (stereo not drawn)
result: 1 (yes)

query: Determine whether measured inhibition meets or exceeds -70% for `CC(NC(=O)NCCCC(=O)O)(C(F)(F)F)C(F)(F)F`
result: 0 (no)

query: Determine whether measured inhibition meets or exceeds -70% for `c1coc(-c2nnc3sc(-c4cccs4)nn23)c1`
result: 1 (yes)

query: Determine whether measured inhibition meets or exceeds -70% for `Cc1cc(C)n(-c2nnc(C)n2/N=C/c2ccco2)n1`
result: 0 (no)

query: Determine whether measured inhibition meets or exceeds -70% for `COC(=O)c1ccccc1NC=C1C(=O)OC2(CCCCC2)OC1=O`
result: 1 (yes)

query: Determine whether measured inhibition meets or exceeds -70% for `CCCCCCn1cc(C(=O)O)c(=O)c2ccccc21`
result: 0 (no)

query: Determine whether measured inhibition meets or exceeds -70% for Cc1ccccc1C(OCCN(C)C)c1ccccc1 (stereo not drawn)
result: 1 (yes)

query: Determine whether measured inhibition meets or exceeds -70% for `C[C@@H]1C[C@H]2[C@@H]3C[C@H](F)C4=CC(=O)C=C[C@]4(C)[C@@]3(F)[C@@H](O)C[C@]2(C)[C@@]1(O)C(=O)CO`
result: 0 (no)

query: Determine whether measured inhibition meets or exceeds -70% for CCOC(=O)C(CC(=O)O)N1CCCCC1 (stereo not drawn)
result: 1 (yes)

query: Determine whether measured inhibition meets or exceeds -70% for `CC(C)N1CCc2c(sc(N)c2C#N)C1`
result: 1 (yes)

query: Determine whether measured inhibition meets or exceeds -70% for CCOc1ccc(/C(O)=C2/C(=O)C(=O)N(CCN(CC)CC)C2c2ccco2)cc1 (stereo not drawn)
result: 1 (yes)

query: Determine whether measured inhibition meets or exceeds -70% for O=C1NC(c2cccs2)Nc2ccccc21 (stereo not drawn)
result: 1 (yes)

query: Determine whether measured inhibition meets or exceeds -70% for `c1ccc(C2=Nn3c(nnc3-c3ccccn3)SC2)cc1`
result: 0 (no)

query: Determine whether measured inhibition meets or exceeds -70% for `C[C@]12CC[C@@H]3c4ccc(O)cc4CC[C@H]3[C@@H]1CCC2=O`
result: 0 (no)
